Some compounds, each annotated with its measured pIC50.
System: HIV-1 wild-type (R8) virus
experimental details: Viral KINetics in Green cells (VIKING) assay, HIV-1 replication in MT4-GFP reporter cells
Type: cell-based
study conditions: Human immunodeficiency virus 1, 10% normal human serum, MT4-GFP cells, HIV-1 wild-type (R8); read-out: Viking (10% NHS), IC50
pIC50: −log10 of the molar value.

compound: C#C[C@]1(CO)O[C@@H](n2ccc3c(N(C(=O)OCCCCCCCCCC)C(=O)OCCCCCCCCCC)nc(Cl)nc32)C[C@@H]1O [Example 220]
pIC50: 6.21
--
compound: C#C[C@]1(CO)O[C@@H](n2ccc3c(N)nc(Cl)nc32)C[C@@H]1OC(=O)CCCCCCCC [Example 55]
pIC50: 8.66
--
compound: C#C[C@]1(CO)O[C@@H](n2ccc3c(N)nc(Cl)nc32)C[C@@H]1OC(=O)[C@@H](C)c1ccccc1 [Example 102]
pIC50: 7.37
--
compound: C#C[C@]1(COC(=O)CCCC)O[C@@H](n2ccc3c(N)nc(Cl)nc32)C[C@@H]1OC(=O)CCCC [Example 7]
pIC50: 8.54

###

experimental details: Aqueous solubility in PBS, pH 7.4
Format: physicochemical
study conditions: phosphate buffered saline, pH 7.4, aqueous buffer, thermodynamic from solid, pH 7.4 phosphate buffered saline, 24 hours, amorphous or crystalline material; read-out: Aqu. Solubility

given smiles: C#C[C@]1(COC(=O)C(CC)CC)O[C@@H](n2ccc3c(N)nc(Cl)nc32)C[C@@H]1O
reading unit: µg/mL
value operator: =
solubility at 24 h: 282
//
given smiles: C#C[C@]1(CO)O[C@@H](n2ccc3c(N)nc(Cl)nc32)C[C@@H]1OC(=O)OCC1CCCCC1
reading unit: µg/mL
value operator: <
solubility at 24 h: 1
//
given smiles: C#C[C@]1(COC(=O)CCCCCCCCCCCCCCC)O[C@@H](n2ccc3c(N)nc(Cl)nc32)C[C@@H]1O
reading unit: µg/mL
value operator: <
solubility at 24 h: 1
//
given smiles: C#C[C@]1(COC(=O)CCCCC)O[C@@H](n2ccc3c(N)nc(Cl)nc32)C[C@@H]1OC(=O)CC
reading unit: µg/mL
value operator: =
solubility at 24 h: 2.4
//
given smiles: C#C[C@]1(COC(=O)CCCC[C@@H]2SC[C@@H]3NC(=O)N[C@@H]32)O[C@@H](n2ccc3c(N)nc(Cl)nc32)C[C@@H]1O
reading unit: µg/mL
value operator: =
solubility at 24 h: 38
//
given smiles: C#C[C@]1(CO)O[C@@H](n2ccc3c(N)nc(Cl)nc32)C[C@@H]1OC(=O)CCCCCCCCCCC
reading unit: µg/mL
value operator: =
solubility at 24 h: 2
//
given smiles: C#C[C@]1(COC(=O)CCCCCCC)O[C@@H](n2ccc3c(N)nc(Cl)nc32)C[C@@H]1O
reading unit: µg/mL
value operator: =
solubility at 24 h: 5
//
given smiles: C#C[C@]1(COCOC(=O)OC(C)C)O[C@@H](n2ccc3c(N)nc(Cl)nc32)C[C@@H]1O
reading unit: µg/mL
value operator: =
solubility at 24 h: 341

###

System: HIV-1 wild-type (R8) virus
experimental details: Viral KINetics in Green cells (VIKING) assay, HIV-1 replication in MT4-GFP reporter cells
Assay type: cell-based
study conditions: Human immunodeficiency virus 1, 10% normal human serum, MT4-GFP cells, HIV-1 wild-type (R8); read-out: Viking (10% NHS), IC50
pIC50: −log10 of the molar value.
Decide by pIC50: equal to or exceeding 8 means 1 (yes), less means 0 (no).

given smiles: C#C[C@]1(CO)O[C@@H](n2ccc3c(N)nc(Cl)nc32)C[C@@H]1OC(=O)OCCCC
experimental system: HIV-1 wild-type (R8) virus
assigned class: 1 (yes)
//
given smiles: C#C[C@]1(CO)O[C@@H](n2ccc3c(N)nc(Cl)nc32)C[C@@H]1OC(=O)c1ccccc1
experimental system: HIV-1 wild-type (R8) virus
assigned class: 0 (no)
//
given smiles: C#C[C@]1(COC(=O)C2CCCCC2)O[C@@H](n2ccc3c(N)nc(Cl)nc32)C[C@@H]1O
experimental system: HIV-1 wild-type (R8) virus
assigned class: 1 (yes)
//
given smiles: C#C[C@]1(COC(=O)Cc2ccc(Br)cc2)O[C@@H](n2ccc3c(N)nc(Cl)nc32)C[C@@H]1O
experimental system: HIV-1 wild-type (R8) virus
assigned class: 1 (yes)
//
given smiles: C#C[C@]1(CO)O[C@@H](n2ccc3c(NC(=O)OCc4ccccc4)nc(Cl)nc32)C[C@@H]1O
experimental system: HIV-1 wild-type (R8) virus
assigned class: 0 (no)
//
given smiles: C#C[C@]1(CO)O[C@@H](n2ccc3c(NC(=O)CCc4ccccc4)nc(Cl)nc32)C[C@@H]1O
experimental system: HIV-1 wild-type (R8) virus
assigned class: 0 (no)
//
given smiles: C#C[C@]1(COC(=O)OCc2oc(=O)oc2C)O[C@@H](n2ccc3c(N)nc(Cl)nc32)C[C@@H]1O
experimental system: HIV-1 wild-type (R8) virus
assigned class: 1 (yes)
//
given smiles: C#C[C@]1(COC(=O)OCCC23CC(C2)C3)O[C@@H](n2ccc3c(N)nc(Cl)nc32)C[C@@H]1O
experimental system: HIV-1 wild-type (R8) virus
assigned class: 1 (yes)
//
given smiles: C#C[C@]1(COCOC(=O)C(C)C)O[C@@H](n2ccc3c(N)nc(Cl)nc32)C[C@@H]1O
experimental system: HIV-1 wild-type (R8) virus
assigned class: 1 (yes)
//
given smiles: C#C[C@]1(CO)O[C@@H](n2ccc3c(N)nc(Cl)nc32)C[C@@H]1OC(=O)OCCCCCC
experimental system: HIV-1 wild-type (R8) virus
assigned class: 1 (yes)
//
given smiles: C#C[C@]1(CO)O[C@@H](n2ccc3c(N)nc(Cl)nc32)C[C@@H]1OC(=O)C(CCC)CCC
experimental system: HIV-1 wild-type (R8) virus
assigned class: 0 (no)
//
given smiles: C#C[C@]1(CO)O[C@@H](n2ccc3c(N)nc(Cl)nc32)C[C@@H]1OC(=O)OCCc1ccccc1
experimental system: HIV-1 wild-type (R8) virus
assigned class: 1 (yes)
//
given smiles: C#C[C@]1(COC(=O)CCCCCCCCC)O[C@@H](n2ccc3c(N)nc(Cl)nc32)C[C@@H]1OC(=O)CC
experimental system: HIV-1 wild-type (R8) virus
assigned class: 0 (no)
//
given smiles: C#C[C@]1(CO)O[C@@H](n2ccc3c(N)nc(Cl)nc32)C[C@@H]1OC(=O)OCC
experimental system: HIV-1 wild-type (R8) virus
assigned class: 0 (no)
//
given smiles: C#C[C@]1(COC(=O)Cc2ccc(F)cc2)O[C@@H](n2ccc3c(N)nc(Cl)nc32)C[C@@H]1OC(=O)Cc1ccc(F)cc1
experimental system: HIV-1 wild-type (R8) virus
assigned class: 1 (yes)
//
given smiles: C#C[C@]1(COC(=O)CCCCC)O[C@@H](n2ccc3c(N)nc(Cl)nc32)C[C@@H]1O
experimental system: HIV-1 wild-type (R8) virus
assigned class: 1 (yes)
//
given smiles: C#C[C@]1(COC(=O)CCCC)O[C@@H](n2ccc3c(N)nc(Cl)nc32)C[C@@H]1OC(=O)CC
experimental system: HIV-1 wild-type (R8) virus
assigned class: 0 (no)
